Would you mind telling me the reported Relative activity (%) of each entry?
System: RdFucI
Assay type: biochemical, Raoultella sp. KDH 14
condition_context: effect of metal ion on RdFucI activity, fuculose as substrate; Control = 100
Write down the numeric answer in % and omit the unit.

QUERY: Given the entry [Cl-].[Cl-].[Zn+2] [ZnCl2] , report its measured Relative activity (%).
RESULT: 159

QUERY: Please look up its Relative activity (%): [Ca+2].[Cl-].[Cl-] [CaCl2]
RESULT: 64

QUERY: Endpoint output: Relative activity (%) of [Cl][Fe]([Cl])[Cl] [FeCl3] . Value?
RESULT: 74

QUERY: GET /values?readout=Relative activity (%)&item= [Cl][Mn][Cl] [MnCl2]
RESULT: 738

QUERY: // Relative activity (%) lookup, key: [Cl-].[Cs+] [CsCl2]
RESULT: 101

QUERY: Requested field: Relative activity (%). Item: [Cl][Cu][Cl] [CuCl2]
RESULT: 58

QUERY: What measured Relative activity (%) goes with [Cl][Ni][Cl] [NiCl2] ?
RESULT: 91

QUERY: Item under review: [Cl-].[Cl-].[Mg+2] [MgCl2] . Reported Relative activity (%)?
RESULT: 533

QUERY: Would you kindly share the measured Relative activity (%) for O=S(=O)([O-])[O-].[Li+].[Li+] [LiSO4] ?
RESULT: 101

QUERY: Entry [Cl][Cd][Cl] [CdCl2] has what Relative activity (%)?
RESULT: 183

Where do the numbers come from? From patent US20220282237A1.
